- study.target: Kappa-type opioid receptor (Homo sapiens)
- Sequence (P41145 whole entry): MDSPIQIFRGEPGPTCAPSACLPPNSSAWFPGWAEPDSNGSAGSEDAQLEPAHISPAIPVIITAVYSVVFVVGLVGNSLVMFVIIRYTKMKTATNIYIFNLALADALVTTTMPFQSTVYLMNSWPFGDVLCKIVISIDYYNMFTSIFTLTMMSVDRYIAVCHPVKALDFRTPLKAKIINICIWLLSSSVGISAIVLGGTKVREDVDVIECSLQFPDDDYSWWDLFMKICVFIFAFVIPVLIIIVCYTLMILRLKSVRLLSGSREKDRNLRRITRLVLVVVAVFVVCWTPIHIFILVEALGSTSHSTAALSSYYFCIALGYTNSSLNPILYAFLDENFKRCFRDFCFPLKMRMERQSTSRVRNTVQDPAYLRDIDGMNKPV
With a cut-off of 0.4 nM, any Ki strictly below it is called T; any Ki meeting it or above is called F.

Exercise: Record "O=C(CCC(=O)Oc1ccc2c(c1)[C@@]13CCCC[C@H]1[C@@H](C2)N(CC1CC1)CC3)Oc1ccc2c(c1)[C@@]13CCCC[C@H]1[C@@H](C2)N(CC1CC1)CC3" : is its Ki strictly below 0.4 nM?
Solution: T

Exercise: Lab note: confirm whether the reported Ki for this compound is below 0.4 nM, equality not counting. compound: "O=C(CCCCCCCCC(=O)Oc1ccc2c(c1)[C@@]13CCCC[C@H]1[C@@H](C2)N(CC1CCC1)CC3)Oc1ccc2c(c1)[C@@]13CCCC[C@H]1[C@@H](C2)N(CC1CCC1)CC3"
Solution: T

Exercise: # check: Ki < 0.4 nM for "c1cc2c(cc1OCCCCCCCCCCOc1ccc3c(c1)[C@@]14CCCC[C@H]1[C@@H](C3)N(CC1CCC1)CC4)[C@@]13CCCC[C@H]1[C@@H](C2)N(CC1CCC1)CC3"
Solution: F

Exercise: Please determine if CN1CC[C@]23CCCC[C@H]2[C@H]1Cc1ccc(O)cc13 [LEVORPHANOL] is below 0.4 nM in terms of Ki.
Solution: F

Exercise: Just wondering, is Ki of "O=C(CCCC(=O)Oc1ccc2c(c1)[C@@]13CCCC[C@H]1[C@@H](C2)N(CC1CCC1)CC3)Oc1ccc2c(c1)[C@@]13CCCC[C@H]1[C@@H](C2)N(CC1CCC1)CC3" below 0.4 nM?
Solution: F

Exercise: Given the entry "O=C(Oc1ccc2c(c1)[C@@]13CCCC[C@H]1[C@@H](C2)N(CC1CCC1)CC3)c1cccc(C(=O)Oc2ccc3c(c2)[C@@]24CCCC[C@H]2[C@@H](C3)N(CC2CCC2)CC4)c1" , would its reported Ki be below 0.4 nM?
Solution: F

Exercise: Does this compound meet the criterion Ki < 0.4 nM? "O=C(Oc1ccc2c(c1)[C@@]13CCCC[C@H]1[C@@H](C2)N(CC1CCC1)CC3)[C@H]1C[C@H]1C(=O)Oc1ccc2c(c1)[C@@]13CCCC[C@H]1[C@@H](C2)N(CC1CCC1)CC3"
Solution: T
